Test system: Fibrinogen (Alexa647-labelled)
Experiment: fibrinogen binders on compound microarrays, profiling panel, artefact control for SMM control-protein annotation, biochemical, small-molecule microarray, 635/667 nm fluorescence (AID 1131);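 note: z-score merges 667 nm fluorescence with per-spot signal-to-noise over triplicate slides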
Settings: fibrinogen-A647 binding fluorescence, higher = more signal
Assign true (1) whenever composite z-score does not fall below 0.4; assign false (0) whenever it does.

Check out these entries, answers already filled in.
GIVEN_SMILES | LABEL
C=C(CCCC)C(=O)CC[C@@H](OC(C)=O)c1ccccc1OCCO | false (0)
[N-]=[N+]=Nc1ccccc1C[C@@]1(C(=O)N2CCOCC2)N=C(c2ccc(OCCCO)cc2)O[C@@H]1c1ccccc1N=[N+]=[N-] | true (1)

-- ask Please check the record C=CCNC(=O)[C@H]1[C@@H]2C(=O)O[C@@H](c3ccccc3)[C@@H](c3ccccc3)N2[C@@H](c2ccccc2OCCO)[C@]12C(=O)N(C(=O)OCCOC)c1ccc(C#CCC(C(=O)OC)C(=O)OC)cc12 and state if its composite z-score is at or above 0.4.
-- reply true (1)

-- ask Please check the record COc1ccc([C@H]2C[C@H]3C(Br)=C[C@]2(OC)C(=O)[C@]32CO2)cc1 and state if its composite z-score is at or above 0.4.
-- reply false (0)

-- ask Please check the record Cc1ccc(N2C(=O)c3ccccc3[C@@H](C(=O)NCc3ccccc3)[C@@H]2c2ccc(CO)cc2)nc1 and state if its composite z-score is at or above 0.4.
-- reply false (0)

----------
Assay: S. cerevisiae growth modulation with rapamycin, primary screen, strain BY4716, OD600, 96 h (AID 1091); note: test concentration not given here
Details: called active from +8 up or from −8 down
The source made the active and inactive calls.
Respond only with the outcome that fits, drawn from active, inactive

Check out these entries, answers already filled in.
COMPOUND | LABEL
CC(C)[Si](OCCCNS(=O)(=O)c1ccc(Br)cc1)(C(C)C)C(C)C | inactive
COCCOC(=O)N1C(=O)[C@@]2(c3cc(C#CC4=CCCCC4)ccc31)[C@H](C(=O)NC[C@H](O)c1ccccc1)[C@H]1C(=O)O[C@H](c3ccccc3)[C@H](c3ccccc3)N1[C@@H]2c1ccccc1OCCO | inactive
C[C@@H]1C=CCC(=O)OC[C@H]2O[C@@H](C=C[C@@H]2O)[C@H](C)C=CCC(=O)OC[C@H]2O[C@H]1C=C[C@@H]2O | inactive

-- ask Returns: the outcome recorded for C=CCN(C(=O)C1N(c2ccc(CCO)cc2)C(=O)C2C(C(=O)O)C3C=CC21O3)C(C)(C)C (centres undefined) in this assay.
-- reply inactive

-- ask Returns: the outcome recorded for CO[C@@H]1COC(=O)[C@@H]2CCCN2C(=O)CC=C[C@@H](C)[C@H](OC)COC(=O)[C@@H]2CCCN2C(=O)CC=C[C@H]1C in this assay.
-- reply inactive

-- ask Returns: the outcome recorded for O=C1O[C@H](c2ccccc2)[C@H](c2ccccc2)N2[C@H]1[C@@H](C(=O)NC[C@H](O)c1ccccc1)[C@]1(C(=O)Nc3ccc(C#CC4=CCCCC4)cc31)[C@H]2c1ccc(OCCO)cc1 in this assay.
-- reply inactive

-- ask Returns: the outcome recorded for COC(=O)C1=CC(c2ccc(CO)cc2)=CC(C2CC2)N(Cc2sc3ccccc3c2Cl)C=C1C(=O)OC (centres undefined) in this assay.
-- reply inactive

-- ask Returns: the outcome recorded for CC(C)CNC(=O)[C@@]1(C)c2ccccc2C(=O)N(Cc2ccc(OC(F)(F)F)cc2)[C@H]1c1ccc(CO)cc1 in this assay.
-- reply inactive

-- ask Returns: the outcome recorded for CC1=C([C@H](O)CCc2ccccc2)[C@H](CO)[C@@H]2C(=O)N(Cc3ccccc3)C(=O)[C@@H]2C1 in this assay.
-- reply inactive

----------
Here the recorded z-score is given for each entry.
Experiment: basal MM1S mitochondrial membrane potential changes, profiling panel, cell-based, JC-1 fluorescence, 24 h, 100 nL compound (AID 1170); note: test concentration not given here
Details: higher = more signal

# example entries with known answers
MOLECULE | ENDPOINT_RESULT
C#CCNC(/C=C/c1ccccc1)CO (stereo not drawn) | -0.323
C=C[C@H](OC)[C@@H](OC(=O)Nc1ccc(SC)cc1)c1ccc(OC)c(O)c1 | 0.761
C=CCC(OC(C)=O)[C@@H]1[C@@H](N(Cc2cc3ccccc3o2)C(=O)Cc2ccc(F)cc2)c2cc(OCCCO)ccc2N1C(=O)c1ccc(-c2ccccc2)cc1 (stereo partly drawn) | 0.0416
O=C1O[C@@H](c2ccccc2)[C@@H](c2ccccc2)N2[C@@H](c3ccc(O)cc3)[C@]3(C(=O)Nc4ccccc43)[C@@H](C(=O)N3CCN(c4ncccn4)CC3)[C@H]12 | -0.618
O=C1C2C=CC(C(O)c3ccccc3)N(n3cnnc3)C2C(=O)N1Cc1ccccc1 (stereo not drawn) | 0.474
CC[C@H]1C2=C3C(CC[C@H]4C(OC)OC[C@](C)([C@@H]34)N(C(=O)OC(C)(C)C)C2)C(CO)C1CO (stereo partly drawn) | -1.26
CC1=C([C@H](O)CCc2ccccc2)[C@H](CO)[C@@H]2C(=O)N(Cc3ccccc3)C(=O)[C@@H]2C1 | -1.5

Let us examine a further case.
-- ask Specify measured z-score for CC/C=C/C(=O)N(C[C@@H]1CCCO1)[C@@H]1CC(C(=O)NCCO)=C[C@H](Oc2c(I)cc(CO)cc2OC)[C@H]1O .
-- reply 0.265

----------
Target: NADPH oxidase 2 (Homo sapiens) (UniProt P04839)
Sequence (P04839 whole entry, looked up): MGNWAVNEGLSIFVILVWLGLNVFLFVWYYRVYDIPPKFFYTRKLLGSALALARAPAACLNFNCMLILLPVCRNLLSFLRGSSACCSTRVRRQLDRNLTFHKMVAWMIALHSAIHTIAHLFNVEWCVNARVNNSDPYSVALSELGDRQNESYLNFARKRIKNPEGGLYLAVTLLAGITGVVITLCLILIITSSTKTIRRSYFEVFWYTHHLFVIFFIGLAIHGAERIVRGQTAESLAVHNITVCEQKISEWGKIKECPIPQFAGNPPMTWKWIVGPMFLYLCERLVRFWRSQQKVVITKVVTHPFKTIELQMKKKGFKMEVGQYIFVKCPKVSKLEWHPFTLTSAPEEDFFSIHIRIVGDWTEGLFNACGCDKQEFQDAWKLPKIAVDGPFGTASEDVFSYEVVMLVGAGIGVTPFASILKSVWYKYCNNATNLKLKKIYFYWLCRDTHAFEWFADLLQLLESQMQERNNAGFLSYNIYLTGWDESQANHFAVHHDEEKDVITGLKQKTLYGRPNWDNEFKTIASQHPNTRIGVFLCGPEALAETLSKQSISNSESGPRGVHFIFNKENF
Assay: NOX2-dependent H2O2 signal modulators, primary screen, NOX inhibitor project, cell-based, HEK293-NOX2, PMA-stimulated, Amplex Red fluorescence (AID 1159); note: test concentration not given here
Conditions: 45 min, higher = more signal, called active from +8 up or from −8 down
METRIC: z-score
Answer as a number with no unit attached.

-- ask Specify measured z-score for COCCOC(=O)N1C(=O)[C@@]2(c3cc(C#CC4=CCCCC4)ccc31)[C@H](C(=O)NC[C@H](O)c1ccccc1)[C@H]1C(=O)O[C@H](c3ccccc3)[C@H](c3ccccc3)N1[C@@H]2c1ccccc1OCCO .
-- reply 1.53

-- ask Specify measured z-score for COC(=O)c1ccc(C#CC(NP(=O)(c2ccccc2)c2ccccc2)c2ccccc2)cc1 (stereo unspecified) .
-- reply 0.00908

-- ask Specify measured z-score for O=C1OCCC/C=C\[C@H]2OC34C=CCN(CCN5CCOCC5)C(=O)[C@H]3N(CCCCCO)C(=O)[C@@H]4C12 (stereo partly specified) .
-- reply 0.796

-- ask Specify measured z-score for O=C(CS)NCCCCCCNC(=O)[C@@H]1C[C@@H]2C(=O)N[C@@H](Cc3ccccc3)C(=O)N2[C@@H]1c1ccc(O)cc1 .
-- reply 1.48

-- ask Specify measured z-score for C[C@@H]1CC[C@H]2C(=O)N3[C@@H](CC[C@@H](C)[C@@H]3c3cccc(N4CCOCC4)c3)C(=O)N2[C@H]1c1cccc(Br)c1 .
-- reply 0.693

-- ask Specify measured z-score for CO[C@H]1O[C@H](CO)[C@@H](OC(=O)Nc2ccc(Oc3ccccc3)cc2)[C@H](OC(=O)Nc2ccccc2-c2ccccc2)[C@H]1OC(=O)Nc1ccccc1-c1ccccc1 .
-- reply 1.95

----------
Assay: S. cerevisiae RM11-1a growth modifiers, primary screen, strain RM11-1a, OD600, basal, 24 h (AID 1177);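 note: cultures grown under basal conditions with no added stressor; test concentration not given here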
Details: OD600, 24 h, higher = more signal, called active from +8 up or from −8 down
Here the recorded z-score is given for each entry.
Answer as a number with no unit attached.

# example entries with known answers
MOLECULE | z-score
CO[C@H]1COC(=O)[C@H](C)NC(=O)CC=C[C@@H](C)[C@H](NS(=O)(=O)c2ccc(C)cc2)COC(=O)[C@@H](OCc2ccccc2)C=C[C@@H]1C | 1.25
COC(=O)C1=CC(c2ccc(CO)cc2)=CC(c2cccs2)N(Cc2cccc(OC(F)(F)F)c2)C=C1C(=O)OC (stereo not drawn) | 1.62
CN1C2C=C(c3ccc(CO)cc3)C(C3C(=O)N(C(N)=O)C(=O)C32)C1c1cccs1 (stereo not drawn) | 1.19
COc1cccc([C@@H]2[C@@H](C)CC[C@H]3C(=O)N(C)[C@@H](C(C)C)C(=O)N23)c1 | 0.192
COc1ccc([Si](C)(C)[C@H]2[C@H](CCO)O[C@@]3(C(=O)N(Cc4ccccc4)c4ccc(N5C(=O)c6cccc7cccc5c67)cc43)[C@@H]2C)cc1 | 4.08
C[C@@H]1C=CCC(=O)OC[C@H]2O[C@@H](C=C[C@@H]2O)[C@H](C)C=CCC(=O)OC[C@H]2O[C@H]1C=C[C@@H]2O | -2.89
CO[C@@H]1COC(=O)CC=C[C@H](C)COC(=O)[C@H](Cc2ccccc2)NC(=O)CC=C[C@H]1C | -1.02

-- ask Specify measured z-score for O=C1c2ccccc2[C@](Cc2ccccc2I)(C(=O)O)[C@H](c2ccc(CO)cc2)N1C1CCCCC1 .
-- reply -1.05
